Provenance of the data: the supplement of paper PMC6555819

Provide the reported PBM binding z-score of each item.
- System: PPARg:RXRa 270nM:90nM, anti-RXR (NR concentration 270 nM, RXRa partner concentration 90 nM)
- EXPERIMENT_DESCRIPTION: PBM binding z-score (relative to random genomic background probes); higher = stronger binding; sequences stand for … in GC…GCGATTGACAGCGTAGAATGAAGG

Inquiry: Data request, read-out PBM binding z-score, for GCTAGTTGGGCAGTAAAAGGTCACACACCGGTCG
Reply text: 3.8

Inquiry: Data request, read-out PBM binding z-score, for TCTCGCAGGACACGAAAGGTCAGAGCTCGACATC
Reply text: 2.76

Inquiry: Data request, read-out PBM binding z-score, for CCGACTGGGGCATAAGGTTACCACAAGCCAGCCC
Reply text: 3.27

Inquiry: Data request, read-out PBM binding z-score, for CCGACTAGGGCAAGGTTACCATAACGCACAGCCA
Reply text: 3.99

Inquiry: Data request, read-out PBM binding z-score, for GCTGCTAGGTCAGGTTCGTCAGCTAACGGGTACG
Reply text: 1.21

Inquiry: Data request, read-out PBM binding z-score, for GTACCAAGGTGAGTAGGTCGTTGATGAGTAGGCG
Reply text: 0.888

Inquiry: Data request, read-out PBM binding z-score, for TCTAGTTGGTCAAAGGTCCCACACTCGAAATGCG
Reply text: 7.21

Inquiry: Data request, read-out PBM binding z-score, for AGAACGAGGGCACGCTGAGTTGATAACAGAGTAG
Reply text: 1.82

Inquiry: Data request, read-out PBM binding z-score, for CCTCAGAGGACAACAGGAGGTCAGAGCTGCCAGA
Reply text: 0.51

Inquiry: Data request, read-out PBM binding z-score, for AATACAGCGTCACTAGGCCAGAGTAGGTACGAAT
Reply text: 0.513

Inquiry: Data request, read-out PBM binding z-score, for TAGCCTAGGTCATGCCGGCCAGTATAGTGTCGGC
Reply text: 2.08

Inquiry: Data request, read-out PBM binding z-score, for TCATATAGGTAAATGCTAGGTGAAAGTTCGATCT
Reply text: 4.57

Inquiry: Data request, read-out PBM binding z-score, for TCTATAAGTTGATTAGGGCAACCGAAACAGCGGA
Reply text: 2.02

Inquiry: Data request, read-out PBM binding z-score, for CGTCCAAGGTCAAAGGTCAGTGAGGAGATGACGG
Reply text: 8.98

Inquiry: Data request, read-out PBM binding z-score, for GCGACTGGGGCATCAACAGGTTACCATAACTTAA
Reply text: 0.92

Inquiry: Data request, read-out PBM binding z-score, for CCTACTGGGCCATCAGGTCATTCATATCAACGTT
Reply text: 3.47

Inquiry: Data request, read-out PBM binding z-score, for CAAACTAGGTCTCAGAGGTCAAAGTCCGTGCGTA
Reply text: 5.17

Inquiry: Data request, read-out PBM binding z-score, for TCATAGAGGTAAATGCTAGGTGAAAGTCCGATCT
Reply text: 1.7

Inquiry: Data request, read-out PBM binding z-score, for AAATGTAGGTTACATCCGGGTCATTCAGGCTATG
Reply text: 5.78

Inquiry: Data request, read-out PBM binding z-score, for TGAATGAGGTTATCAGATCAGGGAACGTTGCAAA
Reply text: 2.18

Inquiry: Data request, read-out PBM binding z-score, for CCTCGGAGGACAACAGGAGGTCGGAGCTGCCAGA
Reply text: -0.445

Inquiry: Data request, read-out PBM binding z-score, for AATACAGGGTCACTAGGGCAGAGTAGGTACGAAT
Reply text: 6.78

Inquiry: Data request, read-out PBM binding z-score, for TGTCAAAGTGCAAAGGTAACGTAAGTATCCACAC
Reply text: 5.16
